Hi there, I'd appreciate the recorded CLint scaled at 0.5 μM for every entry that follows.
- procedure-details: in vitro metabolic stability in human liver microsomes
- Type: in vitro ADME
- condition-context: human, liver microsomes, compound 0.5 μM, human liver microsomes 0.5 mg/mL, NADPH, 40 min, 37° C.; read-out: Human liver microsome Clapp (apparent intrinsic clearance)
Answers are plain numbers, in mL/min/kg.

Solved entries (count: 3):
[[record]]
compound = "C[C@]12CN(c3cnc(C#N)cn3)C[C@H]1CCN(c1ncnc3[nH]ccc13)C2 (racemic)"
reading = 55

[[record]]
compound = "CC[C@]12CN(c3nnc(Br)s3)CC[C@H]1CCN(c1ncnc3[nH]ccc13)C2 (relative stereo)"
reading = 200

[[record]]
compound = "C[C@]12CN(c3ccc(C#N)nn3)C[C@H]1CCN(c1ncnc3[nH]ccc13)C2 (racemic)"
reading = 53


Quick request: CLint scaled at 0.5 μM for each listed item, please.
1. CC[C@]12CN(C#N)CC[C@H]1CCN(c1ncnc3[nH]ccc13)C2
2. C[C@@]12CN(C#N)CC[C@@H]1CCN(c1ncnc3[nH]ccc13)C2
3. C[C@]12CN(c3ccc(C#N)cn3)C[C@H]1CCN(c1ncnc3[nH]ccc13)C2 (racemic)
4. C[C@]12CN(C#N)C[C@H]1CCN(c1ncnc3[nH]ccc13)C2
5. CC12CN(c3ccc(C#N)cn3)C[C@H]1CCN(c1ncnc3[nH]ccc13)C2 (stereo in doubt)
6. Cc1cc(N2CC[C@H]3CCN(c4ncnc5[nH]ccc45)C[C@@]3(C)C2)ncc1C#N (racemic)
7. CC[C@@]12CN(c3ncnc4[nH]ccc34)CC[C@@H]1CCN(S(N)(=O)=O)C2 (relative stereo)

1. 185
2. 60
3. 133
4. 10
5. 166
6. 200
7. 197

Measured values drawn from patent US10851116B2 for this set.
